Target: human NaV 1.8 channels stably expressed in HEK 293 cells (Homo sapiens (Human))
Sequence (Q9Y5Y9 whole entry): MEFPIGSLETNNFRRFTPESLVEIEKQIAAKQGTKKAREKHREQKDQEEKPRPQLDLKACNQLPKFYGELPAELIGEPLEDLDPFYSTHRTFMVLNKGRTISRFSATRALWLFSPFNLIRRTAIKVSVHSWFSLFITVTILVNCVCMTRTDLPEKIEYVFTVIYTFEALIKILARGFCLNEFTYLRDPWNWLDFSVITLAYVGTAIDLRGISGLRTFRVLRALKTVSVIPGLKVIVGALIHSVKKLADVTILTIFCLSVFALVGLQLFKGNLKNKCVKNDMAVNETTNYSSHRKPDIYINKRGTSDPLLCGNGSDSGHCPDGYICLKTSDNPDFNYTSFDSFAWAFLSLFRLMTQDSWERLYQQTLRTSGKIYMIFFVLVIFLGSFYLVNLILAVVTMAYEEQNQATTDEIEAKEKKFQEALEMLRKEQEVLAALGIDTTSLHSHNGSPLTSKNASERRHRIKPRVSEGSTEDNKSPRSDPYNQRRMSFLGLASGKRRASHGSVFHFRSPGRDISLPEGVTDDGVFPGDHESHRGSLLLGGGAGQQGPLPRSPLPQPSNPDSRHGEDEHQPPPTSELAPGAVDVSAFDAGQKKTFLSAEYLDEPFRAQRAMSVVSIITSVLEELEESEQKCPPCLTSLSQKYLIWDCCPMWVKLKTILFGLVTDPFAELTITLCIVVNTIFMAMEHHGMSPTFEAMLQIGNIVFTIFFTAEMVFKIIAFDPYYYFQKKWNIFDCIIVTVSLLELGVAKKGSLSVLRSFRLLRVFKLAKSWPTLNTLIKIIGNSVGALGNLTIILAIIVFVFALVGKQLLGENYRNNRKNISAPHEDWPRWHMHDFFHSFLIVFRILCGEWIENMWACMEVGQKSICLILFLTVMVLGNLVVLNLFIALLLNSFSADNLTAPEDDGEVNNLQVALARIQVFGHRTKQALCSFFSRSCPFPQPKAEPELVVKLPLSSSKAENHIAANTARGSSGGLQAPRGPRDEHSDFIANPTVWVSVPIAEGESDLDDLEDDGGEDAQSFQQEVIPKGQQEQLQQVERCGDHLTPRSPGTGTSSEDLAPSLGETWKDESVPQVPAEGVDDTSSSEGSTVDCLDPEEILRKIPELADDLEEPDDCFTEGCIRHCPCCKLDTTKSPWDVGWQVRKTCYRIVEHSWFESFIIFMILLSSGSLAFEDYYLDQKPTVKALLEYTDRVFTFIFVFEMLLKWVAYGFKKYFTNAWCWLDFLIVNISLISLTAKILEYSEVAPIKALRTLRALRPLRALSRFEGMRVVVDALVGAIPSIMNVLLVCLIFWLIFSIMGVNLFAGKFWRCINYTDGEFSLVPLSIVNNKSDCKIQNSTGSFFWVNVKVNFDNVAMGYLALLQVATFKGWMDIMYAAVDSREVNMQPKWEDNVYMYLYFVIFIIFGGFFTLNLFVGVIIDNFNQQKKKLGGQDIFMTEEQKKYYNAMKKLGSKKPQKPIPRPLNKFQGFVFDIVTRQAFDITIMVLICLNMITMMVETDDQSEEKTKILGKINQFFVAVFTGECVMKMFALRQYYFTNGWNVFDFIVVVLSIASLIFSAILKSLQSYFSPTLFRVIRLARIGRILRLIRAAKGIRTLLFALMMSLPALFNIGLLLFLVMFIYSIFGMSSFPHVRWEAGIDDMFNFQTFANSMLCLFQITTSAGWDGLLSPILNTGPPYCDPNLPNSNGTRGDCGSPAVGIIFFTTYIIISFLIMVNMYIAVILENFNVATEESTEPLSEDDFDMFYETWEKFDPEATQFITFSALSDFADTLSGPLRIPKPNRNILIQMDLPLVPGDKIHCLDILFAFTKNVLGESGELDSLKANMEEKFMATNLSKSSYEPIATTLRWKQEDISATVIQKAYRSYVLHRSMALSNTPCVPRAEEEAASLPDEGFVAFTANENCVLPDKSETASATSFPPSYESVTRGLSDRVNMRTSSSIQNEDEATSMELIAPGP
Test: Nav1.8 Qube automated patch-clamp assay
Format: cell-based
Details: human NaV1.8 in HEK 293 cells, whole-cell voltage clamp, room temperature; read-out: IC50 values (nM) for Examples in the Nav1.8 Qube Assay
Note to self: use 1.0 only for IC50 readings below 90 nM; a reading exactly at 90 nM still gets 0.0.

Threshold test, IC50 < 90 nM: C[C@@H]1C(=O)NCCN1C(=O)NC(c1ccc(F)c(Cl)c1)c1ccc(F)c(OCC(F)(F)F)n1 (single isomer, unassigned) [Example 70A]
1.0

Please state whether IC50 is below 90 nM for C[C@@H]1C(=O)NCCN1C(=O)NC(c1cnc(C(F)(F)F)s1)c1ccc(F)c(Cl)c1F (single isomer, unassigned) [Example 62A]
0.0

Does this molecule meet the criterion IC50 < 90 nM? CC1(C)C(=O)NCCN1C(=O)NC(c1ccc(F)c(Cl)c1)c1cccc(C(F)(F)F)n1 (single isomer, unassigned)
0.0

API: query returns whether the molecule falls strictly under 90 nM in IC50. Query: O=C1CN(C(=O)NC(c2ccc(F)c(Cl)c2)c2cccc(C(F)(F)F)n2)CCN1 (single isomer, unassigned)
1.0

Hi there! Is IC50 for C[C@@H]1C(=O)NCCN1C(=O)NC(c1ccc(F)c(Cl)c1)c1ccc(Cl)c(C(F)(F)F)n1 (single isomer, unassigned) below 90 nM, do you know?
1.0

Consider the molecule C[C@@H]1C(=O)NCCN1C(=O)NC(c1ccc(F)c(Cl)c1)c1ccn(C(F)F)n1 (single isomer, unassigned) [Example 66A] . Is its IC50 strictly less than 90 nM?
0.0
